Where these numbers come from: ChEMBL document CHEMBL4406833

# Test Name: Apparent permeability across apical to basolateral side in human Caco2 cells upto 90 mins by LC-MS/MS analysis
# Assay type: ADME, cell-based
# Conditions Used: Caco-2
Parameter: Papp A→B at 1.5 h (×10⁻⁶ cm/s)
Reply with just the number (in ×10⁻⁶ cm/s).

So what does the record say about Papp A→B at 1.5 h for NS(=O)(=O)NCCNc1nonc1C(=NO)Nc1ccc(F)c(Br)c1 ?
3.1

---

# Experimental System: Indoleamine 2,3-dioxygenase 2 (Homo sapiens)
# Sequence (Q6ZQW0 whole entry): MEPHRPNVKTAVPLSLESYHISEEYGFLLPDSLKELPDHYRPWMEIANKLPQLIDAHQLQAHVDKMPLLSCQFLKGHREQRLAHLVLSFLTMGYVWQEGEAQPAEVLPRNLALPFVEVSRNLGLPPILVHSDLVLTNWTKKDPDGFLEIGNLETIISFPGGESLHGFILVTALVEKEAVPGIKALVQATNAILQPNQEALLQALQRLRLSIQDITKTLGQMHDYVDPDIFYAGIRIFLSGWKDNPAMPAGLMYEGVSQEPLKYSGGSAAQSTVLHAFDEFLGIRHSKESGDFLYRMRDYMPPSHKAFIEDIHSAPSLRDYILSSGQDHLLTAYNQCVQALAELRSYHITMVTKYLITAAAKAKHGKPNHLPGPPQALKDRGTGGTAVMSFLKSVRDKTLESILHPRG
Parameter: pIC50
Just so you know, pIC50 here is -log10 of the concentration in molar units; reply with that number alone.

What pIC50 value was documented for this molecule, NS(=O)(=O)NCCNc1nonc1C(=NO)Nc1ccc(F)c(Br)c1 ?
6.15
